System: A-375 human malignant melanoma
Assay: SRB cell proliferation (cytotoxicity) assay, A-375
Conditions: read-out: IC50: Concentration to inhibit 50% of cell growth; A-375
Excerpt: The XLSTAT software was used to determine the IC50, TGI and LC50 values using the four-parameter logistic curve equation.
property measured: pIC50
One number for each entry, as −log10 of the molar value.

Batch request: pIC50 for each of the following molecules.
1. AGCTGACACAGCAGGTTGGTGCCCAAAAGAGCCAATCCACGACGACACCCCAAAAACCATATCACGAATACCCGAGTCGAGCAATCTCGAAAT (nucleic acid, chemistry not given here) DNA: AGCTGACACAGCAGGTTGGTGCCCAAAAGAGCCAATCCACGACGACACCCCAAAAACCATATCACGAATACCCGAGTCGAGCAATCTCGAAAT
2. AGCTGACACAGCAGGTTGGTGCCAACAAGAAAAGAAACCGTTACAGAAGACACTACAGAATAAGTGAAAAGCCGAGTCGAGCAATCTCGAAAT (nucleic acid, chemistry not given here) DNA: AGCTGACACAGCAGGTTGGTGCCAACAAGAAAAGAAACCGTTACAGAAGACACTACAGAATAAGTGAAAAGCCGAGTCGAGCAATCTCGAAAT
3. CTGACACAGCAGGTTGGTGCCAACTAACACCATAAGAATACCCCGCTCCAAATAAGCCCACACGTAAACCCGAGTCGAGCAATCTCGAAAT (nucleic acid, chemistry not given here, DNA aptamer that recognizes human galectin-1) DNA: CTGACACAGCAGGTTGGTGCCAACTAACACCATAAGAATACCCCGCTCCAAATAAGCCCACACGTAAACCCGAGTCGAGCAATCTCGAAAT

1. 4.21
2. 4.32
3. 4.64

Record request: pIC50 value, item AGCTGACACAGCAGGTTGGTGCGCCCAATACAGGCGCAGTATCTGTCCGTGGGCCGGGTAAAAGTTACGGACCGAGTCGAGCAATCTCGAAAT (nucleic acid, chemistry not given here) DNA: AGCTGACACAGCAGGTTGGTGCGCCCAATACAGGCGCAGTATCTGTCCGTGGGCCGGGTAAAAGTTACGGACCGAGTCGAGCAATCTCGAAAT
4.58
